src = patent US11744802B2

# Test Name: Food effect on single dose Compound of Formula I 100 mg single agent tablet (8 subjects)
# Format: in vivo, human
# Reported Conditions: human, plasma, oral, 100 mg, mean; Compound of Formula I 100 mg single agent tablet, Fasted, n = 8
Measure Name: AUC(0-t) (µg·h/mL)
# output: bare number, implied unit µg·h/mL

Input O=C(NCc1c(F)cc(F)cc1F)c1cn2c(c(O)c1=O)C(=O)N1[C@H]3CC[C@H](C3)O[C@@H]1C2 [Compound of Formula I] . Output AUC(0-t): 116

====

# Test Name: Relative bioavailability and food-effect crossover study, cohort 1 (bilayer tablet F2 vs F1 co-administered with F3)
# Reported Conditions: human, plasma, oral, AUCinf, plasma, mean; F1 Compound of Formula I (75 mg) + F3 F/TAF (200/25 mg) co-administered, fasted, Reference, N = 28, cohort 1
Measure Name: AUC(0-inf) (µg·h/mL)
# output: bare number, implied unit µg·h/mL

Input O=C(NCc1c(F)cc(F)cc1F)c1cn2c(c(O)c1=O)C(=O)N1[C@H]3CC[C@H](C3)O[C@@H]1C2 . Output AUC(0-inf): 123
